Test system: CD4+ T cells
Test: Exogenous autologous healthy donor restimulation assay, TNFα and IFNγ production by CD4+ T cells
Type: cell-based, human
Design: unit not given here
Conditions: maximum CD4+ T-cell response, donor independent; peptide pool 10 μg/mL, healthy donors
For each of the sequences below, state its Frequency (TNFα+ IFNγ+ CD4 T cells).
One number for each entry.

Below, each entry is followed by its recorded Frequency (TNFα+ IFNγ+ CD4 T cells) result.
INSERT INTO results (construct_sequence, measured_result) VALUES
  ('FSQNMNTKMIRGTERKQQYYGLQILE [AS134, alternative splicing, XPO1]', 0.02),
  ('VHLDFSSAEMGFPHAAQANVELLGSSDLLT [AS116, alternative splicing, FCRL5]', 0.076);

Okay, here is my list. What is Frequency (TNFα+ IFNγ+ CD4 T cells) for each of these?
1. DVAVICSGRRSARDP [FUS4, gene fusion CD5L-> FCRL1]
2. FSMRPAFGETALGCKKW [AS19, alternative splicing, GABRR2]
3. LDQCVETLCSLSKSD [FUS44, gene fusion ZGPAT-> LIME1]
4. IIMALAILDLFAVLKIEAHKQLLLKSFCYGAGK [AS113, alternative splicing, CLCC1]

### Response
[0.029, 0.12, 0.024, 0.009]

Okay, here is my list. What is Frequency (TNFα+ IFNγ+ CD4 T cells) for each of these?
1. CEIMPLQSYILL [AS37, alternative splicing, FAM13A]
2. GTTRLLSGEDFS [AS111, alternative splicing, CD55]
3. LARQISFKSLI [FUS14, gene fusion UBE2J1-> GABRR2]
4. LGRLEEAKVPLKMLLF [AS122, alternative splicing, OGT]

### Response
0.21
0.06
0.19
0.048

====

System: CD4+ T cells
Test: Exogenous autologous healthy donor restimulation assay, TNFα and IFNγ production by CD4+ T cells
Assay type: cell-based, human
Parameters: unit not given here
Conditions: maximum CD4+ T-cell response, donor independent; peptide pool 10 μg/mL, healthy donors
Measurement Name: Frequency (TNFα+ IFNγ+ CD4 T cells)

INSERT INTO assay_data (construct_sequence, measurement_name, measured_result) VALUES
  ('SGLLMNTLTVLILYFLY [FUS9, gene fusion EAF2-> SLC15A2]', 'Frequency (TNFα+ IFNγ+ CD4 T cells)', 0.031),
  ('PPTAAASQTCLELER [FUS21, gene fusion FOSB-> KLF6]', 'Frequency (TNFα+ IFNγ+ CD4 T cells)', 0.023),
  ('PKVFPKNQVISLIPKAQEDPEHT [AS127, alternative splicing, ST3GAL6]', 'Frequency (TNFα+ IFNγ+ CD4 T cells)', 0.14),
  ('VAPSGLYYCG [FUS34, gene fusion CLN6-> CALML4]', 'Frequency (TNFα+ IFNγ+ CD4 T cells)', 0.015);

Next sequence, please.
Reported Frequency (TNFα+ IFNγ+ CD4 T cells) (CD4+ T cells) for entry QILEQPKQVRLKGWDFKC [AS68, alternative splicing, NFKB1] is 0.033
